- Test System: UniProt P31424
- Sequence (P31424 whole entry): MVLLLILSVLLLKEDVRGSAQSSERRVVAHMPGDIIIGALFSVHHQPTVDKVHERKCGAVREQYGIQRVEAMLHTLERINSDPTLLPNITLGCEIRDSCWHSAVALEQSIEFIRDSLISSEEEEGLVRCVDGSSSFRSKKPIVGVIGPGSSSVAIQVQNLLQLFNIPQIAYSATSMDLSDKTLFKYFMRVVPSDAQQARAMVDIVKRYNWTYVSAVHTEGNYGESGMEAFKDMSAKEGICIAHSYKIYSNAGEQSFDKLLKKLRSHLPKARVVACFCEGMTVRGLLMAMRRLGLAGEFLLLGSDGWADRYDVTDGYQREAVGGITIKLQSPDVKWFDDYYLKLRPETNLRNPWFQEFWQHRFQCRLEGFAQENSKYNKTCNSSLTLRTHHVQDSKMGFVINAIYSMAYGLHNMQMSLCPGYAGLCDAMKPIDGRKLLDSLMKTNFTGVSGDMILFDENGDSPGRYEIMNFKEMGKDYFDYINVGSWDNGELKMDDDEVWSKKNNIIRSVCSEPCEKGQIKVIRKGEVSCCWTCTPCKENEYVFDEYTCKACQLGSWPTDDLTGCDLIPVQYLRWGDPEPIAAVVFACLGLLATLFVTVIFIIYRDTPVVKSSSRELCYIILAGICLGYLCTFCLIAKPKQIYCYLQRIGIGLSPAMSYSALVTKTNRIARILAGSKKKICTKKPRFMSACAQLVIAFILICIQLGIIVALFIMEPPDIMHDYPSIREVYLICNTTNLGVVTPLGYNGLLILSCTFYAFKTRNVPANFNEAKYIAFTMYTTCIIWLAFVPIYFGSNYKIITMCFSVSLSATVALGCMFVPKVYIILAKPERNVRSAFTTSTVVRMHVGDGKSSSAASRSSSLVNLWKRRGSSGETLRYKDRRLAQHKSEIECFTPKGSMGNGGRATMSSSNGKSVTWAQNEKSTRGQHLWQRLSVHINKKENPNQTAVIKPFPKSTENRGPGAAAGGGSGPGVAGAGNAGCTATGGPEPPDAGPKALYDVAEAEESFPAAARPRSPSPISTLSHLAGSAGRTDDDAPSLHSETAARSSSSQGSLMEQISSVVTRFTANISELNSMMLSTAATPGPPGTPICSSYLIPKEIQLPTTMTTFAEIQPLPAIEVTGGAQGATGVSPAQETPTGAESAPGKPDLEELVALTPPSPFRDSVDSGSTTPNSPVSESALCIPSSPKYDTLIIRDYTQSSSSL
- Test Protocol: Functional Calcium Flux Assay: For functional assays, HEK293 cells stably expressing recombinant rat mGluR5 were seeded in 384-well plates and dye loaded using Fluo-8. Cells were then washed to remove the un-incorporated dye. Antagonist evaluation was performed following a 15 min incubation of the test compound followed by the addition of submaximal concentration of glutamate. Intracellular calcium ([Ca2+]i) measurements were performed using a fluorometric imaging plate reader (FLIPR, Molecular Devices). The glutamate-evoked increase in [Ca2+]i in the presence of the test compounds was compared to the response to glutamate alone (the positive control). Antagonist inhibition curves were fitted with a 4-parameter logistic equation giving IC50 values, and Hill coefficients using an iterative nonlinear curve fitting algorithm.
Observable: IC50

input: Quick one: IC50 of N#Cc1cc(F)cc(N2CC3CC3(C#Cc3cccc(Cl)n3)C2)c1 (stereo unspecified) ?
output: < 0.5 µM
